Form field: Dmax (one value per entry).
target: ER in T47D cells (Homo sapiens (Human), UniProt P03372); assay: In-cell western (ICW) ER degradation assay in T47D cells (Compounds A1-A70); type: cell-based; settings: T47D, maximal ER degradation, T47D cells, 16 hrs treatment; read-out: T47D ICW Dmax (%)
Where a name gives a salt, the structure may show the parent alone.
result_type: Dmax

{"molecule": "COc1cc(N2CCC(CN3CCC(c4ccc5c(c4)n(C)c(=O)n5C4CCC(=O)NC4=O)CC3)CC2)ccc1[C@@H]1c2[nH]c3ccccc3c2C[C@@H](C)N1CC(F)F (stereo partly drawn)", "study_system": "ER in T47D cells (Homo sapiens (Human), UniProt P03372)", "result": "50 to 75%"}
{"molecule": "COc1cc(N2CCC(CN3CCN4c5ccc6c(c5OC[C@@H]4C3)CN([C@@H]3CCC(=O)NC3=O)C6=O)CC2)ccc1[C@@H]1c2[nH]c3ccccc3c2C[C@@H](C)N1CC(F)F", "study_system": "ER in T47D cells (Homo sapiens (Human), UniProt P03372)", "result": "50 to 75%"}
{"molecule": "C[C@@H]1Cc2c([nH]c3ccccc23)[C@@H](c2cnc([C@H]3CC[C@H](C(=O)N4CCC(N5Cc6cc7c(cc6C5)C(=O)N(C5CCC(=O)NC5=O)C7)CC4)CC3)nc2)N1CC(F)F (stereo partly drawn)", "study_system": "ER in T47D cells (Homo sapiens (Human), UniProt P03372)", "result": "25 to 50%"}
{"molecule": "C[C@@H]1Cc2c([nH]c3ccccc23)[C@@H](c2ccc(N3CCC(CN4CCN5c6ccc7c(c6OC[C@@H]5C4)CN([C@H]4CCC(=O)NC4=O)C7=O)CC3)nc2)N1CC(F)F", "study_system": "ER in T47D cells (Homo sapiens (Human), UniProt P03372)", "result": "50 to 75%"}
{"molecule": "COc1cc(N2CCC(CN3CCN(c4ccc(C(=O)N[C@@H]5CCC(=O)NC5=O)nc4)CC3)CC2)ccc1[C@@H]1c2[nH]c3ccccc3c2C[C@@H](C)N1CC(F)F [Compound A57, formate]", "study_system": "ER in T47D cells (Homo sapiens (Human), UniProt P03372)", "result": "25 to 50%"}
{"molecule": "C[C@H]1Cc2c([nH]c3ccccc23)[C@H](c2cnc(N3CCC4(CC3)C[C@H](CN3CCN5c6cc7c(cc6OC[C@H]5C3)C(=O)N([C@@H]3CCC(=O)NC3=O)C7)CO4)nc2)N1CC(F)F", "study_system": "ER in T47D cells (Homo sapiens (Human), UniProt P03372)", "result": "50 to 75%"}
{"molecule": "COc1cc(N2CCC(CN3CCN4c5ccc6c(c5OC[C@@H]4C3)CN([C@H]3CCC(=O)NC3=O)C6=O)CC2)ccc1[C@@H]1c2[nH]c3ccccc3c2C[C@@H](C)N1CC(F)F", "study_system": "ER in T47D cells (Homo sapiens (Human), UniProt P03372)", "result": "> 75%"}
{"molecule": "COc1cc(N2CCC(CN3CCN4c5ccc6c(c5OC[C@H]4C3)CN([C@H]3CCC(=O)NC3=O)C6=O)CC2)ccc1[C@H]1c2[nH]c3ccccc3c2C[C@@H](C)N1CC(F)F", "study_system": "ER in T47D cells (Homo sapiens (Human), UniProt P03372)", "result": "50 to 75%"}
{"molecule": "C[C@H]1Cc2c([nH]c3ccccc23)[C@H](c2cnc(N3CCC4(CC3)C[C@@H](CN3CCC(c5ccc(N[C@@H]6CCC(=O)NC6=O)cc5)CC3)CO4)nc2)N1CC(F)F", "study_system": "ER in T47D cells (Homo sapiens (Human), UniProt P03372)", "result": "> 75%"}
{"molecule": "COc1cc(N2CCC(CN3CCN(c4ccc(C(=O)NC5CCC(=O)NC5=O)nc4OC)CC3)CC2)ccc1[C@@H]1c2[nH]c3ccccc3c2C[C@@H](C)N1CC(F)F (stereo partly drawn)", "study_system": "ER in T47D cells (Homo sapiens (Human), UniProt P03372)", "result": "25 to 50%"}
{"molecule": "COc1cc(N2CCC(CN3CCN(c4ccc(NC5CCC(=O)NC5=O)cc4F)CC3)CC2)ccc1[C@@H]1c2[nH]c3ccccc3c2C[C@@H](C)N1CC(F)F (stereo partly drawn)", "study_system": "ER in T47D cells (Homo sapiens (Human), UniProt P03372)", "result": "25 to 50%"}
{"molecule": "C[C@H]1Cc2c([nH]c3ccccc23)[C@H](c2ccc(N3CCC(CN4CCN5c6cc7c(cc6OC[C@H]5C4)C(=O)N([C@@H]4CCC(=O)NC4=O)C7)CC3)cn2)N1CC(F)(F)F", "study_system": "ER in T47D cells (Homo sapiens (Human), UniProt P03372)", "result": "< 25%"}

---

target: ER in MCF-7 cells (Homo sapiens (Human), UniProt P03372); assay: In-cell western (ICW) ER degradation assay in MCF-7 cells (Compounds A1-A70); type: cell-based; conditions: MCF7, maximal ER degradation, MCF-7 cells, 16 hrs treatment; read-out: MCF7 ICW Dmax (%)
Sequence (P03372 whole entry): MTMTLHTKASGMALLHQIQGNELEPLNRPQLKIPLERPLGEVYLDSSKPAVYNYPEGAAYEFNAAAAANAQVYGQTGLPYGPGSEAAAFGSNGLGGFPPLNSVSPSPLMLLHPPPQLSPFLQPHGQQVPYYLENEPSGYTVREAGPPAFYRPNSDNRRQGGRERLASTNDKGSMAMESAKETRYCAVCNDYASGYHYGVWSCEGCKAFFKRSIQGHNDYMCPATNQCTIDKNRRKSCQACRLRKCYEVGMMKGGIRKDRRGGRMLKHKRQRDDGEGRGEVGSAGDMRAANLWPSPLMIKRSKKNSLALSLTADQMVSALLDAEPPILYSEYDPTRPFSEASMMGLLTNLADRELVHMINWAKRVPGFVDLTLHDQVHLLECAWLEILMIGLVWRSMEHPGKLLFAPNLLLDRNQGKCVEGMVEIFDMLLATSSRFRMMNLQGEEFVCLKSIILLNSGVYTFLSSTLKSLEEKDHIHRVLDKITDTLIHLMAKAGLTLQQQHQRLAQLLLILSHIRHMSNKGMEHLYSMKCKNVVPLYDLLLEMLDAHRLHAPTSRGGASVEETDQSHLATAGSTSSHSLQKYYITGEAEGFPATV
Counter-ions that a name gives are not always drawn.
Form field: Dmax (one value per entry).

{"compound": "C[C@H]1Cc2c([nH]c3ccccc23)[C@H](c2cnc(N3CCC4(CC3)C[C@H](CN3CCC(c5ccc(N[C@H]6CCC(=O)NC6=O)cc5)CC3)CO4)nc2)N1CC(F)F", "Dmax": "50 to 75%"}
{"compound": "COc1cc(N2CCC(CN3CCN(c4ccc(C(=O)N[C@@H]5CCC(=O)NC5=O)nc4)CC3)CC2)ccc1[C@@H]1c2[nH]c3ccccc3c2C[C@@H](C)N1CC(F)F [Compound A57, formate]", "Dmax": "50 to 75%"}
{"compound": "COc1cc(N2CCC(CN3CCN4c5ccc6c(c5OC[C@H]4C3)CN([C@H]3CCC(=O)NC3=O)C6=O)CC2)ccc1[C@@H]1c2[nH]c3ccccc3c2C[C@@H](C)N1CC(F)F", "Dmax": "50 to 75%"}
{"compound": "COc1cc(N2CCC(CN3CCC(c4ccc(N[C@H]5CCC(=O)NC5=O)cc4F)CC3)CC2)ccc1[C@@H]1c2[nH]c3ccccc3c2C[C@@H](C)N1CC(F)F", "Dmax": "< 25%"}
{"compound": "COc1cc(N2CCC(CN3CCN4c5cc(F)c(C(=O)N[C@H]6CCC(=O)NC6=O)cc5OC[C@@H]4C3)CC2)ccc1[C@@H]1c2[nH]c3ccccc3c2C[C@@H](C)N1CC(F)F", "Dmax": "25 to 50%"}
{"compound": "C[C@@H]1Cc2c([nH]c3ccccc23)[C@@H](c2ccc(N3CCC(CN4CCN5c6ccc7c(c6OC[C@@H]5C4)CN([C@H]4CCC(=O)NC4=O)C7=O)CC3)nc2)N1CC(F)F", "Dmax": "25 to 50%"}
{"compound": "COc1cc(N2CCC(CN3CCN4c5ccc6c(c5OC[C@H]4C3)CN([C@@H]3CCC(=O)NC3=O)C6=O)CC2)ccc1[C@@H]1c2[nH]c3ccccc3c2C[C@@H](C)N1CC(F)F", "Dmax": "50 to 75%"}
{"compound": "C[C@@H]1Cc2c([nH]c3ccccc23)[C@@H](c2cnc(N3CCC(CN4CCC5(CC4)COc4cc6c(cc45)CN(C4CCC(=O)NC4=O)C6=O)CC3)nc2)N1CC(F)(F)CO (some centres unmarked)", "Dmax": "25 to 50%"}
{"compound": "C[C@H]1Cc2c([nH]c3ccccc23)[C@H](c2cnc(N3CCC4(CC3)C[C@H](CN3CCN5c6cc7c(cc6OC[C@H]5C3)C(=O)N([C@@H]3CCC(=O)NC3=O)C7)CO4)nc2)N1CC(F)F", "Dmax": "50 to 75%"}
{"compound": "COc1cc(N2CCC(CN3CCN(c4ccc(NC5CCC(=O)NC5=O)cc4F)CC3)CC2)ccc1[C@@H]1c2[nH]c3ccccc3c2C[C@@H](C)N1CC(F)F (some centres unmarked)", "Dmax": "25 to 50%"}
{"compound": "C[C@@H]1Cc2c([nH]c3ccccc23)[C@@H](c2ccc(N3CCC4(CC3)CC(CN3CCN5c6cc7c(cc6OC[C@@H]5C3)C(=O)N([C@H]3CCC(=O)NC3=O)C7)C4)nc2)N1CC(F)F", "Dmax": "50 to 75%"}

---

Form field: DC50 (one value per entry).
molecular target: ER (Homo sapiens (Human), UniProt P03372); assay: In-cell western blot analysis of relative ER percentage (Compounds B1-B278); assay type: cell-based; details: ER degradation, 16 hours, read-out: ICW DC50

{"compound": "COc1cc(N2CCC3(CC2)CC(CN2CCN4c5cc6c(cc5OC[C@@H]4C2)C(=O)N(C2CCC(=O)NC2=O)C6)C3)ccc1[C@@H]1c2[nH]c3ccccc3c2C[C@@H](C)N1CC(F)F (some centres unmarked)", "DC50": "< 10 nM"}
{"compound": "C[C@@H]1Cc2c([nH]c3ccccc23)[C@@H](c2cnc(N3CCC4(CC3)CN(CC(=O)N3CCN5c6ccc7c(c6OC[C@H]5C3)CN(C3CCC(=O)NC3=O)C7=O)C4)nc2)N1CC(F)(F)F (some centres unmarked)", "DC50": "< 10 nM"}
{"compound": "COc1cc(N2CC3(CCC(CN4CCN5c6ccc7c(c6OC[C@H]5C4)CN(C4CCC(=O)NC4=O)C7=O)CO3)C2)ccc1[C@@H]1c2[nH]c3ccccc3c2C[C@@H](C)N1CC(F)F (some centres unmarked)", "DC50": "10 to 100 nM"}
{"compound": "C[C@@H]1Cc2c([nH]c3ccccc23)[C@@H](c2cnc(N3CC4(CCC(CN5CCN6c7cc8c(cc7OC[C@@H]6C5)C(=O)N(C5CCC(=O)NC5=O)C8)CC4)C3)nc2)N1CC(F)F (some centres unmarked)", "DC50": "10 to 100 nM"}
{"compound": "C[C@@H]1Cc2c([nH]c3ccccc23)[C@@H](c2c(F)cc(N3CCC4(CC3)CN(CC(=O)N3CCN5c6ccc7c(c6OC[C@H]5C3)CN(C3CCC(=O)NC3=O)C7=O)C4)cc2F)N1CC(F)F (some centres unmarked)", "DC50": "10 to 100 nM"}

Source: patent US20260007681A1
